Molecular target: Androgen receptor (Homo sapiens)
Sequence (P10275 whole entry): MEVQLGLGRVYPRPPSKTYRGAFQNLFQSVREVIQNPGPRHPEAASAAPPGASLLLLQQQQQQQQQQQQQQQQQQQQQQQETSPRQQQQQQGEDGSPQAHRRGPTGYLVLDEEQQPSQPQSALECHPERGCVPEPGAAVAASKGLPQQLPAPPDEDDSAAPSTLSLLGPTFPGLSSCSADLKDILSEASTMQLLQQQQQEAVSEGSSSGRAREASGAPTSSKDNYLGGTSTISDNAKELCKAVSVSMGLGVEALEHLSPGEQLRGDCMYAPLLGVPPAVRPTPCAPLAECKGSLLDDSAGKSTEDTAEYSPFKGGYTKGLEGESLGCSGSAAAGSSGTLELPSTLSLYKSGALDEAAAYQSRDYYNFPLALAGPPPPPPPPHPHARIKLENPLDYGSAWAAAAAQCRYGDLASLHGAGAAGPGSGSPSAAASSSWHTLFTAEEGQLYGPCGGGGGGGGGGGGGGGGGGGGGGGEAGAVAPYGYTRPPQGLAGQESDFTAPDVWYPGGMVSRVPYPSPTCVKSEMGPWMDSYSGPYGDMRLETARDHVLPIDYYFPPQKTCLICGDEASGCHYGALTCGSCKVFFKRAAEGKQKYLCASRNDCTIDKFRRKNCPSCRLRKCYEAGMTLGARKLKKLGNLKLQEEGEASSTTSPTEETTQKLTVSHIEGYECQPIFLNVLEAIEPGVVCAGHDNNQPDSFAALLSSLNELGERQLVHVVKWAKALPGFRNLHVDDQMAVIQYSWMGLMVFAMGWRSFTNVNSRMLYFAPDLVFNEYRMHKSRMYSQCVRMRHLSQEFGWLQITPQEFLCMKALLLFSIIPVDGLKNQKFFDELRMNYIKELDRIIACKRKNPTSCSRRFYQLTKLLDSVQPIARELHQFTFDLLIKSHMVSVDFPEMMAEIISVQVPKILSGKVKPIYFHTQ
testReadout: Ki (nM)
Answers are plain numbers, in nM.

List reported Ki for each of these compounds:
1. O=c1cc(C(F)(F)F)c2cc3c(cc2[nH]1)OC[C@@H](CC(F)(F)F)N3CC(F)(F)F
2. O=c1cc(C(F)(F)F)c2cc3c(cc2[nH]1)OC[C@H](CF)N3CC(F)(F)F
3. COC[C@H]1COc2cc3[nH]c(=O)cc(C(F)(F)F)c3cc2N1CC(F)(F)F

Completion:
1: 18; 2: 2.6; 3: 109

====

Please go through the items and note down their IC50.
Biological target: Androgen receptor (Homo sapiens, UniProt P10275)
Sequence (P10275 whole entry): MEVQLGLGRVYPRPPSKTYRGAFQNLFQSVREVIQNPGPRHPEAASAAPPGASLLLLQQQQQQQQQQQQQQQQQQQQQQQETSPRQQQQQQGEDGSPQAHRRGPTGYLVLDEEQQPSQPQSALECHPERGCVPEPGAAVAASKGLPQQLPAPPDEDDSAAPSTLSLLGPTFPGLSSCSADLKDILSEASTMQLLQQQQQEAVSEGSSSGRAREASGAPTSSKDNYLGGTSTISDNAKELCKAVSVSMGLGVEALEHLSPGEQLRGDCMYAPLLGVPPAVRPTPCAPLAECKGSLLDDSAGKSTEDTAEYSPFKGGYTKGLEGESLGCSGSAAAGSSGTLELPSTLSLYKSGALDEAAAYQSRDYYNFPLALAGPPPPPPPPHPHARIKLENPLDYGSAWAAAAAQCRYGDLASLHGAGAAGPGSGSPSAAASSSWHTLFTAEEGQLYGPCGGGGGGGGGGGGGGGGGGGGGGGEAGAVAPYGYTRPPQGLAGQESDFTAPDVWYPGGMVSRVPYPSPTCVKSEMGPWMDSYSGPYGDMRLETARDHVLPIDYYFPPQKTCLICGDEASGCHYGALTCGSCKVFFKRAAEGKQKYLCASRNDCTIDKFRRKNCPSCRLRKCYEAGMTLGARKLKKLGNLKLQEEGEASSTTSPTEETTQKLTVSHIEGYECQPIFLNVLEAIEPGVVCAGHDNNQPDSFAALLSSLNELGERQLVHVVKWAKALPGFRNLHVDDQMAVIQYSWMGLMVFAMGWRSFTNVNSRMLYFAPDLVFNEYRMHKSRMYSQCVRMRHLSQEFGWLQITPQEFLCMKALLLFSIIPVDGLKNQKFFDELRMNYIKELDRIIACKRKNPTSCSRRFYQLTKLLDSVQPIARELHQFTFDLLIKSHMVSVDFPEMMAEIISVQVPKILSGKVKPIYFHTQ
One number for each entry, in nM.

Consider the reported IC50 for these compounds:
- compound: "COC[C@H]1COc2cc3[nH]c(=O)cc(C(F)(F)F)c3cc2N1CC(F)(F)F"
  recordedResult: 17
- compound: "O=c1cc(C(F)(F)F)c2cc3c(cc2[nH]1)OC[C@@H](C(F)(F)F)N3CC(F)(F)F"
  recordedResult: 34
- compound: "O=c1cc(C(F)(F)F)c2cc3c(cc2[nH]1)OC[C@H](c1ccccc1)N3CC(F)(F)F"
  recordedResult: 340

List reported IC50 for each of these compounds:
1. O=c1cc(C(F)(F)F)c2cc3c(cc2[nH]1)OC[C@@H](CO)N3CC(F)(F)F
2. O=c1cc(C(F)(F)F)c2cc3c(cc2[nH]1)OC[C@@H](CF)N3CC(F)(F)F
3. Cc1ccc([C@H]2COc3cc4[nH]c(=O)cc(C(F)(F)F)c4cc3N2CC(F)(F)F)cc1

Completion:
1: 60; 2: 199; 3: 44
